Data origin: ChEMBL document CHEMBL2218924

Measured residual activity of individual entries
# assayed-system: Serine/threonine-protein kinase ULK2 (Homo sapiens)
# Sequence (whole entry): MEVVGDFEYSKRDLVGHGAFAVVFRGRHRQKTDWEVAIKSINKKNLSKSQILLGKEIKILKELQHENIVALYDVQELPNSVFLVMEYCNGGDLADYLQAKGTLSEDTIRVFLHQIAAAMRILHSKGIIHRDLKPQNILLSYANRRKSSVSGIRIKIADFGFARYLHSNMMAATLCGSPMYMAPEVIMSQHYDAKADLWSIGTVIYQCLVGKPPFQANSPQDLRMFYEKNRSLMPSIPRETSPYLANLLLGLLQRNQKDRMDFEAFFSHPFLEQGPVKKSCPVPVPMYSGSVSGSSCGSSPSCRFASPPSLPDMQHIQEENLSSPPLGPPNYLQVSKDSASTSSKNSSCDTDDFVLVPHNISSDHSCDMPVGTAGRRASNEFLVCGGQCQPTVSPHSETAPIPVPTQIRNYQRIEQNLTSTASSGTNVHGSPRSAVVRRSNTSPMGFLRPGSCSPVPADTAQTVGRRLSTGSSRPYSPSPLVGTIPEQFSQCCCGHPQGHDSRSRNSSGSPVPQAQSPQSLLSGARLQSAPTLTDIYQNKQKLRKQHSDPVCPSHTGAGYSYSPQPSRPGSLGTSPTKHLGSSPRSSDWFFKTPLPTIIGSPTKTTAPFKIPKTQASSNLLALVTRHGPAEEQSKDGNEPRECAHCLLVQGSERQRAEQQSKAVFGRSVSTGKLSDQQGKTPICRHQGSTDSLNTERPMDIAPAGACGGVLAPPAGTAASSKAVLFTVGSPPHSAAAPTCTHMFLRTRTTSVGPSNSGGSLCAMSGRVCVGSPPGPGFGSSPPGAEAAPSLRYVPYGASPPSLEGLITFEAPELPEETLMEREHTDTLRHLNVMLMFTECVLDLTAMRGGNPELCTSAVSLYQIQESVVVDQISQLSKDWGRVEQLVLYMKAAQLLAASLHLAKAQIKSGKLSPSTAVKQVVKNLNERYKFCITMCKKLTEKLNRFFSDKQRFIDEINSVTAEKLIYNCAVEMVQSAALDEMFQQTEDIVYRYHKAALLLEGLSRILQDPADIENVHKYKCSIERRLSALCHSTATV
# test-conditions: at 10 µM

{"smiles-data": "Nc1ncnc2[nH]nc(Nc3ccc(F)cc3)c12", "residual activity": "95%"}
{"smiles-data": "O=c1cc(N2CCOCC2)oc2c1ccc1ccccc12", "residual activity": "88%"}
{"smiles-data": "O=C(O)/C=C/c1cc(Br)c(Br)c(Br)c1Br", "residual activity": "107%"}
{"smiles-data": "O=C1Cc2c([nH]c3ccc([N+](=O)[O-])cc23)-c2ccccc2N1", "residual activity": "45%"}
{"smiles-data": "Oc1cccc(-c2nc(N3CCOCC3)c3oc4ncccc4c3n2)c1", "residual activity": "81%"}
{"smiles-data": "COc1ccc(Cl)cc1NC(=O)Nc1cc(C)nc2ccccc12", "residual activity": "85%"}
{"smiles-data": "Nc1n[nH]c2nc3ccccc3nc12", "residual activity": "92%"}
{"smiles-data": "NC(=O)Nc1sc(-c2ccc(F)cc2)cc1C(N)=O", "residual activity": "36%"}
{"smiles-data": "COc1ccc(-c2cnc3c(-c4ccsc4)cnn3c2)cc1", "residual activity": "96%"}
{"smiles-data": "COc1cc2nccc(Oc3ccc(NC(=O)Nc4cc(C)on4)c(Cl)c3)c2cc1OC", "residual activity": "99%"}
{"smiles-data": "COc1ccc2c(c1)c(C1=C(c3c[nH]c4ccccc34)C(=O)NC1=O)cn2CCCN(C)C", "residual activity": "82%"}
{"smiles-data": "Nc1nc(Nc2ccc(S(N)(=O)=O)cc2)nn1C(=O)c1c(F)cccc1F", "residual activity": "39%"}
{"smiles-data": "CCN(CC)CCNC(=O)c1c(C)[nH]c(/C=C2\\C(=O)Nc3ccc(Cl)cc32)c1C", "residual activity": "2%"}
{"smiles-data": "CCCC(=O)Oc1ccc2[nH]c(C(=O)c3cc4ccccc4[nH]3)cc2c1", "residual activity": "97%"}
{"smiles-data": "O=c1cc(N2CCNCC2)oc2c(-c3ccccc3)cccc12", "residual activity": "95%"}
{"smiles-data": "O=C(c1ccccc1)c1ccc(N2CCOCC2)cc1O", "residual activity": "94%"}
{"smiles-data": "CC(C)(C)c1nc2c3ccc(F)cc3c3c(=O)[nH]ccc3c2[nH]1", "residual activity": "25%"}
{"smiles-data": "O=c1c(-c2ccc(F)cc2)c(-c2ccncc2)[nH]n1-c1ccc(Cl)cc1", "residual activity": "102%"}
{"smiles-data": "CCCCc1c(-c2ccc(O)cc2)[nH]c2nccnc12", "residual activity": "93%"}
{"smiles-data": "CC(C)(C)n1nc(Cc2cccc3ccccc23)c2c(N)ncnc21", "residual activity": "95%"}
{"smiles-data": "COc1cc2nccc(Oc3ccc(NC(=S)NC(=O)c4ccccc4C)cc3)c2cc1OC", "residual activity": "93%"}

----------
# assayed-system: Protein kinase C epsilon type (Homo sapiens) (UniProt Q02156)
# Sequence (Q02156 whole entry): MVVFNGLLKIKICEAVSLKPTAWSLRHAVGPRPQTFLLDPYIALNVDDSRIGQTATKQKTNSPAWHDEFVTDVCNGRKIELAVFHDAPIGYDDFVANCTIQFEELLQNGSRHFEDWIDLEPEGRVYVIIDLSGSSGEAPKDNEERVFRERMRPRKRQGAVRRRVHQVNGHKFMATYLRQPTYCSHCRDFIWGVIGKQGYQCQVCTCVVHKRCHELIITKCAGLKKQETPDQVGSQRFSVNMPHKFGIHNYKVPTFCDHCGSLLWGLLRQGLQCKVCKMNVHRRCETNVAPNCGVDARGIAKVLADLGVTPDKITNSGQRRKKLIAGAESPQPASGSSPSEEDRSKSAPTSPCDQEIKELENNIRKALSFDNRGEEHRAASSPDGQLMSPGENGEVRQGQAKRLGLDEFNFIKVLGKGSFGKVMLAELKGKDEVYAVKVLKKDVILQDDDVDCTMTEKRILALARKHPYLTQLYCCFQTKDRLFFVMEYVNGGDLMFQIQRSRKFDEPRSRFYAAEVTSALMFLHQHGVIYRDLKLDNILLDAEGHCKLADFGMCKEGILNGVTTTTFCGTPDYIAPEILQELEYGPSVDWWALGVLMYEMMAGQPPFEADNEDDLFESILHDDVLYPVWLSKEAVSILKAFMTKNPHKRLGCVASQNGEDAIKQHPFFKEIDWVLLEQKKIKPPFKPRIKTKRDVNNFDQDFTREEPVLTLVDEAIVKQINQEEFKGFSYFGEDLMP
# test-conditions: at 10 µM
Measured residual activity of individual entries

{"smiles-data": "O=C(c1ccccc1)c1ccc(N2CCOCC2)cc1O", "value-units": "%", "residual activity": 95}
{"smiles-data": "NCCNc1ncc(C(N)=O)c(Nc2cccc(C(F)(F)F)c2)n1", "value-units": "%", "residual activity": 62}
{"smiles-data": "CCOC(=O)c1c(C)[nH]c(/C=C2\\C(=O)Nc3ccccc32)c1C", "value-units": "%", "residual activity": 88}
{"smiles-data": "O=S(=O)(c1cccc2cnccc12)N1CCCNCC1", "value-units": "%", "residual activity": 69}
{"smiles-data": "O=C1Nc2ccc(Cl)cc2/C1=C/c1cc(Cl)c(O)c(Cl)c1", "value-units": "%", "residual activity": 97}
{"smiles-data": "Nc1ncnc2[nH]nc(Nc3ccc(F)cc3)c12", "value-units": "%", "residual activity": 112}
{"smiles-data": "O=C(Nc1nc2ccccc2n1CCN1CCOCC1)c1cccc([N+](=O)[O-])c1", "value-units": "%", "residual activity": 102}
{"smiles-data": "COc1ccc2c(c1)c(C1=C(c3c[nH]c4ccccc34)C(=O)NC1=O)cn2CCCN(C)C", "value-units": "%", "residual activity": 0}
{"smiles-data": "COc1ccc(Cl)cc1NC(=O)Nc1cc(C)nc2ccccc12", "value-units": "%", "residual activity": 97}
{"smiles-data": "O=C1NC(=O)C(c2c[nH]c3ccccc23)=C1c1c[nH]c2ccccc12", "value-units": "%", "residual activity": 21}
{"smiles-data": "O=C(O)/C=C/c1cc(Br)c(Br)c(Br)c1Br", "value-units": "%", "residual activity": 102}

----------
# assayed-system: Ephrin type-B receptor 4 (Homo sapiens)
# test-conditions: at 10 µM
# Description: Millipore: Percentage of residual kinase activity of EPHB4 at 10uM relative to control. Control inhibitor: PP2 at 30.0uM. Buffer: 8 mM MOPS pH 7.0, 0.2 mM EDTA, 10 mM MnCl2
Entries whose residual activity is below 70% take TRUE; entries at or above 70% take FALSE.

{"compound": "O=C(O)/C=C/c1cc(Br)c(Br)c(Br)c1Br", "label": "FALSE"}
{"compound": "CSc1nc(-c2ccc(F)cc2)c(-c2ccnc(NC(C)c3ccccc3)c2)[nH]1 (stereo not drawn)", "label": "FALSE"}
{"compound": "O=C(Nc1ccc(Cl)cc1)c1ccccc1NCc1ccncc1", "label": "FALSE"}
{"compound": "O=C1NC(=O)C(c2cn(CCCO)c3ncccc23)=C1c1cnccn1", "label": "FALSE"}
{"compound": "N#C/C(=C1/Nc2ccccc2S1)c1ccnc(NCCc2cccnc2)n1", "label": "FALSE"}
{"compound": "NC(=O)Nc1sc(-c2ccc(F)cc2)cc1C(N)=O", "label": "TRUE"}
{"compound": "COc1cc2ncnc(Nc3cccc(Cl)c3)c2cc1OC", "label": "TRUE"}
{"compound": "NCCNc1ncc(C(N)=O)c(Nc2cccc(C(F)(F)F)c2)n1", "label": "FALSE"}
{"compound": "Nc1ncnc2c1cnn2-c1ccccc1", "label": "FALSE"}
{"compound": "O=C1C(Cl)=C(N2C(=O)CCC2=O)C(=O)c2ccccc21", "label": "FALSE"}
{"compound": "O=C1NC(=O)C(c2cn(CCCn3ccnc3)c3ccccc23)=C1Nc1ccccc1", "label": "FALSE"}
{"compound": "Nc1ncnc2[nH]nc(Nc3ccc(F)cc3)c12", "label": "TRUE"}
{"compound": "Nc1nccc(-c2c(-c3ccc(F)cc3)ncn2C2CCNCC2)n1", "label": "TRUE"}
{"compound": "O=C1NC(=O)c2c1c1c3ccccc3[nH]c1n1cncc21", "label": "FALSE"}
{"compound": "O=C1NC(=O)C(c2c[nH]c3ccccc23)=C1c1c[nH]c2ccccc12", "label": "FALSE"}
{"compound": "O=C(Nc1nc2ccccc2n1CCN1CCOCC1)c1cccc([N+](=O)[O-])c1", "label": "FALSE"}
{"compound": "CCN(CC)CCNC(=O)c1c(C)[nH]c(/C=C2\\C(=O)Nc3ccc(Cl)cc32)c1C", "label": "TRUE"}
